Target: beta-catenin/TCF4 engagement (Homo sapiens)
Construct: expressed in transfected cells; host or cells: HEK293
Sequence (P35222 whole entry): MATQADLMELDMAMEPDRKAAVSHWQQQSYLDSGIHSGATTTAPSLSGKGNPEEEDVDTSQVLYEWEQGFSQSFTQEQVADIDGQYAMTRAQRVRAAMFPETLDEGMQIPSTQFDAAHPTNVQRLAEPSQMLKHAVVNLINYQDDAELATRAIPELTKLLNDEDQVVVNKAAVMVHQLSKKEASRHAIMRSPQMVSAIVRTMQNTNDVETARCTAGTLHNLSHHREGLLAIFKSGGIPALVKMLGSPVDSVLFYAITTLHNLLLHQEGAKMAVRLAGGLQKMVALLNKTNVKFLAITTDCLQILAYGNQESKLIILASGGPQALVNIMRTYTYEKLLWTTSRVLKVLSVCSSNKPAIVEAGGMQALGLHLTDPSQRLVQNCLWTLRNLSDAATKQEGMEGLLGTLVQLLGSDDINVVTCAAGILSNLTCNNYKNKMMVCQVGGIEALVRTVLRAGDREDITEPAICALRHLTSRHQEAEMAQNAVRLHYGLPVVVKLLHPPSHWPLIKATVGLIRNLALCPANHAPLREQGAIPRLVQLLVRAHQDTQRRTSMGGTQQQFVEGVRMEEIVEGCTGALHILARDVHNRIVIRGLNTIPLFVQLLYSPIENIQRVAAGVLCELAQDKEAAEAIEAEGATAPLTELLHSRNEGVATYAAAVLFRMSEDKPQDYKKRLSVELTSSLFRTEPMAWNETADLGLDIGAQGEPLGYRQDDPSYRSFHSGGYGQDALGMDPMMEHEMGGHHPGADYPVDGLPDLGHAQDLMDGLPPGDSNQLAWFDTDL
Experiment: Nano-BRET target engagement assay (B-cat-Halo & TCF4-Luc in HEK293 cells)
Type: cell-based
Settings: absolute IC50; read-out: NanoBRET Abs IC50
pIC50: −log10 of the molar value.
Would you mind labelling by pIC50? At or over 5 is Met, under is Not met.

>>> classification("CC(=O)N1CCC[C@]12CC=CCCCC1(CCCC=CCCCCCC[C@@](C)(C(=O)N[C@@H](Cc3ccccc3)C(=O)N[C@@H](Cc3csc4ccccc34)C(=O)N[C@@H](CCC(N)=O)C(N)=O)NC(=O)[C@H](CCO)NC(=O)[C@H](Cc3ccccc3)NC(=O)[C@H](C)NC(=O)[C@H](C)NC(=O)[C@H](CCC(=O)O)NC(=O)[C@H](CC(=O)O)NC1=O)NC(=O)[C@H](CC(N)=O)NC(=O)[C@H](CC(=O)O)NC2=O (stereo partly drawn) [I-1534]")
"Not met"
>>> classification("CC(=O)N1CCC[C@]12CC=CCCCC1(CCCC=CCCCOC(=O)N3CC[C@@](C(=O)N[C@@H](Cc4ccccc4C(F)(F)F)C(=O)N[C@@H](Cc4csc5ccccc45)C(=O)N[C@@H](CCC(N)=O)C(N)=O)(C3)NC(=O)[C@H](CC(C)C)NC(=O)[C@H](Cc3ccccc3)NC(=O)[C@H](C)NC(=O)[C@H](C)NC(=O)[C@H](CC(=O)O)NC(=O)[C@H](CC(=O)O)NC1=O)NC(=O)[C@H](CC(C)(C)C)NC(=O)[C@H](CC(=O)O)NC2=O (stereo partly drawn)")
"Met"
>>> classification("CC(=O)N1CCC[C@]12CC=CCCCC1(CCCC=CCCCOC(=O)N3CC[C@@](C(=O)N[C@@H](Cc4ccsc4)C(=O)N[C@@H](Cc4csc5ccccc45)C(=O)N[C@@H](CCC(N)=O)C(N)=O)(C3)NC(=O)[C@H](CC(C)C)NC(=O)[C@H](Cc3ccccc3)NC(=O)[C@H](C)NC(=O)[C@H](C)NC(=O)[C@H](CCN(CC(=O)O)C(=O)c3c(F)c(F)c(F)c(F)c3F)NC(=O)[C@H](CC(=O)O)NC1=O)NC(=O)[C@H](CC(C)(C)C)NC(=O)[C@H](CC(=O)O)NC2=O (stereo partly drawn)")
"Not met"
>>> classification("CC(=O)N1CCC[C@]12CC=CCCCC1(CCCC=CCCCOC(=O)N3CC[C@@](C(=O)N[C@@H](Cc4ccsc4)C(=O)N[C@@H](Cc4csc5ccccc45)C(=O)N[C@H](C(N)=O)[C@@H](C)O)(C3)NC(=O)[C@H](CC(C)C)NC(=O)[C@H](Cc3ccccc3)NC(=O)[C@H](C)NC(=O)[C@H](C)NC(=O)[C@H](CN(CC(=O)O)CC(F)(F)F)NC(=O)[C@H](CC(=O)O)NC1=O)NC(=O)[C@H](CC(C)(C)C)NC(=O)[C@H](CC(=O)O)NC2=O (stereo partly drawn)")
"Met"
>>> classification("CCCC[C@@H]1NC(=O)[C@H](CC(=O)O)NC(=O)[C@]2(CC=CCCCC3(CCCC=CCCCOC(=O)N4CC[C@@](C(=O)N[C@@H](Cc5ccccc5)C(=O)N[C@@H](Cc5csc6ccccc56)C(=O)N[C@@H](CCC(N)=O)C(N)=O)(C4)NC(=O)[C@H](CC(C)C)NC(=O)[C@H](Cc4ccccc4)NC(=O)[C@H](C)NC(=O)[C@H](C)NC(=O)[C@H](CC(=O)O)NC(=O)[C@H](CC(=O)O)NC3=O)NC1=O)CCCN2C(C)=O (stereo partly drawn)")
"Not met"
>>> classification("CC(=O)N1CCC[C@]12CC=CCCCC1(CCCC=CCCCOC(=O)N3CC[C@@](C(=O)N[C@@H](Cc4ccsc4)C(=O)N[C@@H](Cc4ccc5ccccc5c4)C(=O)N[C@@H](CO)C(N)=O)(C3)NC(=O)[C@H](CC(C)C)NC(=O)[C@H](Cc3ccccc3)NC(=O)[C@H](C)NC(=O)[C@H](C)NC(=O)[C@H](CC(=O)O)NC(=O)[C@H](CC(=O)O)NC1=O)NC(=O)[C@H](CC(C)(C)C)NC(=O)[C@H](CC(=O)O)NC2=O (stereo partly drawn)")
"Not met"
>>> classification("CC(=O)N1CCC[C@]12CC=CCCCC1(CCCC=CCCCOC(=O)N3CC[C@@](C(=O)N[C@@H](Cc4ccsc4)C(=O)N[C@@H](Cc4ccc(C)c(C)c4)C(=O)N[C@@H](CCC(N)=O)C(N)=O)(C3)NC(=O)[C@H](CC(C)C)NC(=O)[C@H](Cc3ccccc3)NC(=O)[C@H](C)NC(=O)[C@H](C)NC(=O)[C@H](Cc3cccc(C(=O)O)c3)NC(=O)[C@H](CC(=O)O)NC1=O)NC(=O)[C@H](CC(C)(C)C)NC(=O)[C@H](CC(=O)O)NC2=O (stereo partly drawn)")
"Met"
>>> classification("CC(=O)N1CCC[C@]12CC=CCCCC1(CCCC=CCCCOC(=O)N3CC[C@@](C(=O)N[C@@H](Cc4ccccc4C(F)(F)F)C(=O)N[C@@H](Cc4csc5ccccc45)C(=O)N[C@@H](C)C(N)=O)(C3)NC(=O)[C@H](CC(C)C)NC(=O)[C@H](Cc3ccccc3)NC(=O)[C@H](C)NC(=O)[C@H](CCC(=O)N3Cc4ccccc4C3)NC(=O)[C@H](Cc3cccc(C(=O)O)c3)NC(=O)[C@H](CC(=O)O)NC1=O)NC(=O)[C@H](CC(C)(C)C)NC(=O)[C@H](CC(=O)O)NC2=O (stereo partly drawn)")
"Met"
